- Test system: TAB113
- experiment.notes: qHTS profiling for inhibitors of Plasmodium falciparum proliferation (AID 504749); also: nearly all actives have a fitted effect of over 60% in size
- protocol.conditions: P. falciparum in erythrocytes, SYBR Green DNA, 72 h; series mostly up to 28.7 µM
Inconclusive results are not listed. Active and inactive are the calls of the source. Calls follow the shape of the dose curve; as a rule, active = well fitted inhibition curve with a large enough effect; inconclusive = small, poorly fitted or top-dose-only effect; inactive = flat fitted curve, though single readings scatter.
Outcomes: True (active), False (inactive)

[
  {
    "compound": "CN(C)C(=S)SSC(=S)N(C)C",
    "classification": "True"
  },
  {
    "compound": "COc1ccc(C(=O)N2CCCC2=O)cc1",
    "classification": "False"
  },
  {
    "compound": "CCC1(CC)C(=O)NC(=O)NC1=O",
    "classification": "False"
  },
  {
    "compound": "O=C(O)c1nn(Cc2ccc(Cl)cc2Cl)c2ccccc12",
    "classification": "False"
  },
  {
    "compound": "O=C(CCCN1CCC(n2c(=O)[nH]c3ccccc32)CC1)c1ccc(F)cc1",
    "classification": "True"
  },
  {
    "compound": "NCc1cccnc1",
    "classification": "False"
  },
  {
    "compound": "CC(C)[N+](C)(CCC(C(N)=O)(c1ccccc1)c1ccccc1)C(C)C",
    "classification": "False"
  },
  {
    "compound": "CCN(Cc1ccc(Cl)nc1)/C(=C/[N+](=O)[O-])NC",
    "classification": "False"
  },
  {
    "compound": "CCC1(c2ccccc2)CCC(=O)NC1=O (configuration not stated)",
    "classification": "False"
  },
  {
    "compound": "COc1ccc(CN2CCNCC2)c(OC)c1OC",
    "classification": "False"
  },
  {
    "compound": "Clc1ccc(CO/N=C(\\Cn2ccnc2)c2ccc(Cl)cc2Cl)c(Cl)c1",
    "classification": "True"
  },
  {
    "compound": "COP(=O)(OC)OC=C(Cl)Cl",
    "classification": "False"
  },
  {
    "compound": "CCNc1nc(Cl)nc(NCC)n1",
    "classification": "False"
  },
  {
    "compound": "NC(=O)OCCCc1ccccc1",
    "classification": "False"
  },
  {
    "compound": "CCC(=O)O[C@H]1CC[C@H]2[C@@H]3CCC4=CC(=O)CC[C@]4(C)[C@H]3CC[C@]12C",
    "classification": "False"
  },
  {
    "compound": "C[C@H]1C(=O)O[C@@H]2CCN3CC=C(COC(=O)[C@](C)(O)[C@]1(C)O)[C@H]23",
    "classification": "False"
  },
  {
    "compound": "Cc1c(Cl)c(=O)oc2cc(OP(=O)(OCCCl)OCCCl)ccc12",
    "classification": "True"
  }
]

---

- experiment.notes: Primary qHTS to identify inhibitors of SARS-CoV-2 cell entry (AID 1645846); also: nearly all actives have a fitted effect of over 45% in size; also: potency is read from the fitted curve at half-maximal effect
- protocol.conditions: SARS-CoV-2 pseudovirus cell entry assay, luminescence; series mostly up to 57.1 µM
Inconclusive results are not listed. Active and inactive are the calls of the source. The call rests on the fitted dose curve.
measured.attribute: Potency

[
  {
    "compound": "NC1(c2ccc(-c3nc4ccn5c(=O)[nH]nc5c4cc3-c3ccccc3)cc2)CCC1",
    "endpoint.value": "8.91 µM (active)"
  },
  {
    "compound": "C=CCCCCCCCCC(=O)O",
    "endpoint.value": "inactive"
  },
  {
    "compound": "COc1ccc2[nH]c(S(=O)Cc3ncc(C)c(OC)c3C)nc2n1 (stereo not drawn)",
    "endpoint.value": "inactive"
  },
  {
    "compound": "OCC(CO)N[C@H]1C[C@](O)(CO)[C@@H](O)[C@H](O)[C@H]1O",
    "endpoint.value": "inactive"
  },
  {
    "compound": "Nc1c(CC(=O)O)cccc1C(=O)c1ccc(Br)cc1",
    "endpoint.value": "inactive"
  },
  {
    "compound": "CC1(C)[C@H](C(=O)O)N2C(=O)C[C@H]2S1(=O)=O",
    "endpoint.value": "inactive"
  },
  {
    "compound": "NC(=O)OCCCc1ccccc1",
    "endpoint.value": "inactive"
  },
  {
    "compound": "Nc1ccc2cc3ccc(N)cc3nc2c1",
    "endpoint.value": "7.94 µM (active)"
  },
  {
    "compound": "O=C(CCCN1CC=C(n2c(=O)[nH]c3ccccc32)CC1)c1ccc(F)cc1",
    "endpoint.value": "inactive"
  },
  {
    "compound": "CCCCC1(COC(=O)CCC(=O)O)C(=O)N(c2ccccc2)N(c2ccccc2)C1=O",
    "endpoint.value": "inactive"
  },
  {
    "compound": "C[C@H](CCC(=O)O)[C@H]1CC[C@H]2[C@@H]3C(=O)C[C@@H]4CC(=O)CC[C@]4(C)[C@H]3CC(=O)[C@]12C",
    "endpoint.value": "inactive"
  },
  {
    "compound": "Cc1nnc2n1-c1sc(CCc3ccc(CC(C)C)cc3)cc1C(c1ccccc1Cl)=NC2C (stereo not drawn)",
    "endpoint.value": "22.4 µM (active)"
  },
  {
    "compound": "Cc1ccc(=O)n(-c2ccccc2)c1",
    "endpoint.value": "inactive"
  },
  {
    "compound": "CNC(=O)c1cnn(-c2nc(N)c3ncn([C@@H]4O[C@H](CO)[C@@H](O)[C@H]4O)c3n2)c1",
    "endpoint.value": "inactive"
  },
  {
    "compound": "COC(=O)C1=C(C)NC(C)=C(C(=O)OCCN2CCN(C(c3ccccc3)c3ccccc3)CC2)C1c1cccc([N+](=O)[O-])c1 (stereo not drawn)",
    "endpoint.value": "17.8 µM (active)"
  },
  {
    "compound": "O=C(O)c1cn(-c2ccc(F)cc2)c2cc(N3CCNCC3)c(F)cc2c1=O",
    "endpoint.value": "inactive"
  },
  {
    "compound": "O[C@@H](COc1cccc2ncccc12)CN1CCN(C2c3ccccc3[C@@H]3[C@H](c4ccccc42)C3(F)F)CC1 (stereo partly drawn)",
    "endpoint.value": "28.2 µM (active)"
  },
  {
    "compound": "CC(C)(Oc1ccc(CCNC(=O)c2ccc(Cl)cc2)cc1)C(=O)O",
    "endpoint.value": "inactive"
  },
  {
    "compound": "CCCCC1C(=O)NC(=O)N(C2CCCCC2)C1=O (stereo not drawn)",
    "endpoint.value": "inactive"
  },
  {
    "compound": "Cc1[nH]c(=O)c(C#N)cc1-c1ccc2nccn2c1",
    "endpoint.value": "inactive"
  },
  {
    "compound": "Oc1c(Cl)cc(Cl)cc1Sc1cc(Cl)cc(Cl)c1O",
    "endpoint.value": "20 µM (active)"
  },
  {
    "compound": "CCCCCC1Nc2cc(C(F)(F)F)c(S(N)(=O)=O)cc2S(=O)(=O)N1 (stereo not drawn)",
    "endpoint.value": "inactive"
  },
  {
    "compound": "NS(=O)(=O)c1cc2c(cc1Cl)CN(C1CCCCC1)C2=O",
    "endpoint.value": "inactive"
  },
  {
    "compound": "CCC(=O)O[C@]1(C(=O)CCl)[C@@H](C)C[C@H]2[C@@H]3CCC4=CC(=O)C=C[C@]4(C)[C@@]3(F)[C@@H](O)C[C@@]21C",
    "endpoint.value": "inactive"
  },
  {
    "compound": "Clc1ccc(C(Cn2ccnc2)OCc2c(Cl)cccc2Cl)c(Cl)c1 (stereo not drawn)",
    "endpoint.value": "31.6 µM (active)"
  },
  {
    "compound": "Cc1c(C)c2c(c(C)c1OC(=O)CCC(=O)OCCO)CC[C@@](C)(CCC[C@H](C)CCC[C@H](C)CCCC(C)C)O2",
    "endpoint.value": "28.2 µM (active)"
  },
  {
    "compound": "CCOc1ccc2nc(S(N)(=O)=O)sc2c1",
    "endpoint.value": "inactive"
  },
  {
    "compound": "Cc1[nH]c(C)c(Cl)c(=O)c1Cl",
    "endpoint.value": "inactive"
  },
  {
    "compound": "COc1ccc2cc1Oc1ccc(cc1)C[C@H]1c3c(cc4c(c3Oc3cc5c(cc3OC)CCN(C)[C@@H]5C2)OCO4)CCN1C",
    "endpoint.value": "7.94 µM (active)"
  },
  {
    "compound": "CC(C)(C)NCC(O)COc1cccc2c1CCC(=O)N2 (stereo not drawn)",
    "endpoint.value": "inactive"
  },
  {
    "compound": "CN(C)C(=O)Oc1cc(OC(=O)N(C)C)cc(C(O)CNC(C)(C)C)c1 (stereo not drawn)",
    "endpoint.value": "inactive"
  },
  {
    "compound": "CCC(=O)Oc1ccc2c(c1)CC[C@@H]1[C@@H]2CC[C@@]2(C)[C@H]1C[C@@H](OC(=O)CC)[C@@H]2OC(=O)CC",
    "endpoint.value": "inactive"
  },
  {
    "compound": "CCCCNc1ccc(C(=O)OCCN(C)C)cc1",
    "endpoint.value": "inactive"
  },
  {
    "compound": "CCCCCN=C(N)N/N=C/c1c[nH]c2ccc(OC)cc12",
    "endpoint.value": "22.4 µM (active)"
  },
  {
    "compound": "C[N+](C)(C)CCOC(=O)CCC(=O)OCC[N+](C)(C)C",
    "endpoint.value": "inactive"
  },
  {
    "compound": "CSc1ccc(C(=O)c2[nH]c(=O)[nH]c2C)cc1",
    "endpoint.value": "inactive"
  },
  {
    "compound": "Cc1cc(=O)oc2cc(O)ccc12",
    "endpoint.value": "inactive"
  },
  {
    "compound": "C[C@@H]1C[C@@H]([C@H](O)CC2CC(=O)NC(=O)C2)C(=O)[C@@H](C)C1",
    "endpoint.value": "2.51 µM (active)"
  },
  {
    "compound": "O=C(O)C(=O)Nc1cccc(-c2nn[nH]n2)c1",
    "endpoint.value": "inactive"
  },
  {
    "compound": "CN1CC(=O)N2[C@H](c3ccc4c(c3)OCO4)c3[nH]c4ccccc4c3C[C@@H]2C1=O",
    "endpoint.value": "inactive"
  },
  {
    "compound": "CCCN(CCC)C(=O)C(CCC(=O)O)NC(=O)c1ccccc1 (stereo not drawn)",
    "endpoint.value": "inactive"
  },
  {
    "compound": "NCC1CCC(C(=O)Oc2ccc(CCC(=O)O)cc2)CC1 (stereo not drawn)",
    "endpoint.value": "inactive"
  },
  {
    "compound": "c1ccc([C@H]2CN3CCSC3=N2)cc1",
    "endpoint.value": "inactive"
  }
]

The values you see were collected from PubChem BioAssay (NCATS).
